targetEntity: T1, nonhuman primate CD36 (on HEK 293 cells) (cynomolgus monkey / rhesus macaque, UniProt P16671 2-472 (human entry))
T1 construct: also called non-human primate CD36 (cynomolgus)
T1 sequence (P16671 other isoform, or with tags, fused parts or gaps limits assumed): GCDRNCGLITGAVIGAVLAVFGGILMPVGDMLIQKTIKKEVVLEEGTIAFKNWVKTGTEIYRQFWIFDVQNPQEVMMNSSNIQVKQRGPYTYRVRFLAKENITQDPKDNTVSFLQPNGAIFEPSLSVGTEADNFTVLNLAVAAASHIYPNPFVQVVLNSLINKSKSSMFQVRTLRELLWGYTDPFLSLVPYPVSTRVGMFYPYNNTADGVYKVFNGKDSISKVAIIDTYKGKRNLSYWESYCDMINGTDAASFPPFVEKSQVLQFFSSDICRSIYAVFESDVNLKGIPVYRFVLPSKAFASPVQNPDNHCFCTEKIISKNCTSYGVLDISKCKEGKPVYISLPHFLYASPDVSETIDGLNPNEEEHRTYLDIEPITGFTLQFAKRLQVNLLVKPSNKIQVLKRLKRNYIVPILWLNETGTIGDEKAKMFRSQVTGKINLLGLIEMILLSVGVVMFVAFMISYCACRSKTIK
protocolSummary: FACS, HEK 293 cells transiently overexpressing CD36;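 note: antibody binding to transfected cells detected by flow cytometry with a fluorescent anti-human secondary antibody, EC50 from a four-parameter sigmoidal fit of mean fluorescence intensity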
endpointName: EC50 (nM)
Write it as a number; the unit nM goes unstated.

For 18G04 (antibody, human IgG1, V domains shown, Chimeric: mouse variable regions on human IgG1 LALA (L234A/L235A); also called 018G04) VH: EVQLQQSGPELVKPGASVKISCETSGHTFTEYTMHWVKQSHGKSLEWIGGIYPNNGATKYNQKFKGKATLTVDKSSSTAYMELRSLTSEDSAVYYCARDRYDVWFAYWGQGTLVTVSA VL: ETTVTQSPASLSMAIGEKVTIRCITSTDIDDDMNWYQQKPGEPPKLLISEGNTLRPGVPSRFSSSGYGTDFVFTIENLLSEDVADYYCLQSDNLPLTFGGGTKLEIK the binder record lists EC50 as 6.6

Looking up 19G04 (antibody, human IgG1, V domains shown, Chimeric: mouse variable regions on human IgG1 LALA (L234A/L235A); also called 019G04) VH: EVQLQQSGPELVKPGASVKISCETSGHTFTEYTMHWVKQSHGKSLEWIGGIYPNNGATKYNQKFKGKATLTVDKSSSTAYMELRSLTSEDSAVYYCARDRYDVWFAYWGQGTLVTVSA VL: ETTVTQSPASLSMAIGEKVTIRCITSTDIDDDMNWYQQKPGEPPKLLISEGNTLRPGVPSRFSSSGYGTDFIFTIENMLSEDVADYYCLQSDNLPLTFGAGTKLELK , I found its EC50 recorded as 5.45

Value of measured EC50 for the entry 21G04 (antibody, human IgG1, V domains shown, Chimeric: mouse variable regions on human IgG1 LALA (L234A/L235A)) VH: QVQLQQSGAELVKPGASVKLSCKASGYTFTSYWMHWVKQRPGQGLEWIGEIDPSDSHTNYNQKFKGKATLTVDKSSSTAYMQLSSLTSEDSAVYYCAPIYYGLDNWGQGTTLTVSS VL: ETTVTQSQKFMSTSVGDRVSVTCKASQNVGTNVAWYQQKPGQSPKALIYSASYRYSGVPDRFTGSGSGTDFTLTISNVQSEDLAEYFCQQYNSYPFTFGSGTKLEIK : 6.38

Note to self: EC50 recorded for 30G04 (antibody, human IgG1, V domains shown, Chimeric: mouse variable regions on human IgG1 LALA (L234A/L235A); also called 030G04) VH: EVQLVESGGGVVQPGESLKLSCESNEYEFPSHDMSWVRKTPERRLELVAAINSDGAITYYPDTMERRFIISRDNTKKTLYLQMSSLKSEDTAMYYCARHGQTGTWFAYWGQGTLVTVSA VL: ETTVTQSPASLSMAIGEKVTIRCITSTDIDDDMNWYQQKPGEPPKLLISEGNTLRPGVPSRFSSSGYGTDFVFTIENMLSEDVADYYCLQSDNLPLTFGAGTKLELK was 1.63

Input 36G04 (antibody, human IgG1, V domains shown, Chimeric: chicken variable regions on human IgG1 LALA (L234A/L235A); also called 036G04) VH: AVTLDESGGGLQTPGGALSLVCKASGFIFSSYGMGWVRQAPGKGLEYIAAISNDGSKADYGAAVKGRATISRDNGQSTVRLQLNNLRAEDTATYYCAKSADTGYCSWSACIADSIDAWGHGTEVIVSS VL: ALTQPSSVSAIPGETVKITCSGGGSDYGWYQQKSPGSAPVTVIYWSDNRPSNIPSRFSGSESGSTATLTITGVRAEDEAVYFCGGYDSSGSGMFGAGTTLTVL . Output EC50: 0.29

Ref: patent US20250206836A1
